Biological target: T1, human Trop-2 expressed on cell surface (human, UniProt P09758 27-323)
T1 sequence (looked up): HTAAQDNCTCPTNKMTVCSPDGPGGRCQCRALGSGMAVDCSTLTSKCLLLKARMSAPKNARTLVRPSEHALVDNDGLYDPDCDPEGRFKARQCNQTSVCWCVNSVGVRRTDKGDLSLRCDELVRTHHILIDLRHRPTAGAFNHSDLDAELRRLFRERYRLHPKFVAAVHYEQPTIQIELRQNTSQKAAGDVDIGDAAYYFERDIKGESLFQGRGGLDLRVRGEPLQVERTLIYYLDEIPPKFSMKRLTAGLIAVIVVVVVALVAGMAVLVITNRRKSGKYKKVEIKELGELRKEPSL
Assay: cell-based or functional assay
Observable: Internalization %, MDA-MB-231, 1 µg/ml, 4 h (%)
One number for each entry, in %.

Sample answers from the record:
Binder: 74F11/15F5 (antibody, human IgG1, V domains shown, LEM construct: VH + rabbit IgG CH1 + human IgG1 CH2-CH3) VH: QEQLKESGGGLVQPGGSLKLSCKASGFDFNNYGMSWVRQAPGKGLEWIAYIYPAFHNTYYANWVNGRFTISSDNAQNTVDLQLNSLTAADTATYFCARDAGSTDYNFNLWGPGTLVTVSS VL: DVVMTQTPASVEAAVGGTVTIKCQASEDIERYLAWYQQKPGQPPKLLIYEASKLPSGVSSRFSGSGYGTEFTLTISGVECADAATYYCQQALTIGYVDNPFGGGSEVVVK
Endpoint value: 48
//
Binder: 5D4 (antibody, V domains shown, Rabbit-derived clone; LEM construct: VH + rabbit IgG CH1 + human IgG1 CH2-CH3) VH: QQLEESGGGLVKPEGSLTLTCKGSGFDFSGTYWMWWVRQAPGKGLEWIACIYVGSGSSTYYASWAKGRFTISSTSSTAVTLQATSLTAADTATYFCARGATNNVFMNYFNLWGPGTLVTVSS VL: FEMTQTPSSVSEPVGGTVTIKCQASEDISSNLGWYQQKPGQPPKLLIYGASTLASGVPSRFKGSGSGTEFTLTISDLECADAATYYCQTSYYIDDGVNGFGGGTEVVVK
Endpoint value: 51

Query :: Give the measured Internalization %, MDA-MB-231, 1 µg/ml, 4 h of 63H3 (antibody, V domains shown, Rabbit-derived clone; LEM construct: VH + rabbit IgG CH1 + human IgG1 CH2-CH3) VH: QEQLKESGGGLVQPGGSLKLSCKASGFDFNSYGVSWVRQAPGKGLEWIAYIYPAFHNAYYANWVNGRFTISSDNAQNTVDLQLNSLTAADTATYFCARDAGGTDYNYNLWGPGTLVTVSS VL: DVVMTQTPASVEVAVGGTVTLKCQASEDIESYSAWYQQKPGQPPNLLIYEASKLASGVSSRFSGSGYGTEFTLTISGVECADAATYYCQQALTIGNVDNPFGGGSEVVVR .
Result :: 49
